testedSystem: BRAF G469A (Homo sapiens, UniProt P15056, G469A)
Construct: Horizon Discovery (HCT-116 BRAF−/− cells); host or cells: HCT-116 BRAF−/− cells, clone 34, lentiviral transduction
Sequence (P15056 whole entry G469A): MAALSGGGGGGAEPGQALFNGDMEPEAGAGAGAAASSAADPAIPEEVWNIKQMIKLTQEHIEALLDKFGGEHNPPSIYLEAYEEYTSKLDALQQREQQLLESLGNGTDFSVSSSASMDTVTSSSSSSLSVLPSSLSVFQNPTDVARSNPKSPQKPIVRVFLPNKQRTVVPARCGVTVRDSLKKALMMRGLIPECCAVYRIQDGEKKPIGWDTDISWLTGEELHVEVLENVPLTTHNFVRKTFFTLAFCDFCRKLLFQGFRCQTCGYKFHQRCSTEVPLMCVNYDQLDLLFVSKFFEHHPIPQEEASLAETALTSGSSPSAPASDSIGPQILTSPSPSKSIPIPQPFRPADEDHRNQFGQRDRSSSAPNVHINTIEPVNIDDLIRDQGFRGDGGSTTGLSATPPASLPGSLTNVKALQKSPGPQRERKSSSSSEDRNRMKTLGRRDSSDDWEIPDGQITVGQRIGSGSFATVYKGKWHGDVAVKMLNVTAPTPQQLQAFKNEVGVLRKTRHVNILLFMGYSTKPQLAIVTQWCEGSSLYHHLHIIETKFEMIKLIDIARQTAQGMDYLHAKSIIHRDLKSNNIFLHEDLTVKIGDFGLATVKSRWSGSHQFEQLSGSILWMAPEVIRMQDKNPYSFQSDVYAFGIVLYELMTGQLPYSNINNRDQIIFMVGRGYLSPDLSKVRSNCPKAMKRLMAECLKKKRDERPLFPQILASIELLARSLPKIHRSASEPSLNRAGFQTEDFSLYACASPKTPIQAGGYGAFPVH
assayProtocol: BRAF HiBiT degradation assay, C-terminal HiBiT-tagged BRAF G469A overexpressed in HCT-116 BRAF−/− cells (clone 34), Nano-Glo HiBiT Lytic assay
Format: cell-based
conditionParameters: Class 2; BRAF G469A; DC50 at 50%: fitted conc. at Y=50
For each entry below, report its DC50 value.

Challenge: Consider the molecule CCCS(=O)(=O)Nc1cccc(-c2nc(C(C)(C)C)sc2-c2ccnc(Nc3ccc(N4CCN(CC5CCN(c6ccc(C7CCC(=O)NC7=O)cn6)CC5)CC4)cc3)n2)c1F (racemic) and give its measured DC50.
Response given: > 500 nM

Challenge: Consider the molecule CCCS(=O)(=O)Nc1cccc(-c2nc(C3CCN(C(=O)CN4CCC5(CC4)CN(c4ccc6c(c4)C(=O)N(C4CCC(=O)NC4=O)C6=O)C5)CC3)sc2-c2ccnc(NC)n2)c1F (racemic) and give its measured DC50.
Response given: > 500 nM

Challenge: Consider the molecule CCN(C)S(=O)(=O)Nc1cccc(-c2nc(C)sc2-c2ccnc(Nc3ccc(N4CCN(CC5CCN(c6ccc(C7CCC(=O)NC7=O)cn6)CC5)CC4)cn3)n2)c1F (racemic) and give its measured DC50.
Response given: 10 to 50 nM

Challenge: Consider the molecule CCCS(=O)(=O)Nc1cccc(-c2nc(C3(C)CCN(C(=O)C4CCN(CC5CCN(c6ccc(C7CCC(=O)NC7=O)cc6)CC5)CC4)CC3)sc2-c2ccnc(N)n2)c1F (racemic) and give its measured DC50.
Response given: > 500 nM

Challenge: Consider the molecule CCN(C)S(=O)(=O)Nc1cccc(-c2nc(C(C)(C)C)sc2-c2ccnc(Nc3ccc(N4CCN(CC5CC6(C5)CN(c5ccc(C7CCC(=O)NC7=O)cn5)C6)CC4)cn3)n2)c1F (racemic) and give its measured DC50.
Response given: 10 to 50 nM

====

testedSystem: BRAF G469A (Homo sapiens, UniProt P15056, G469A)
Construct: Horizon Discovery (HCT-116 BRAF−/− cells); host or cells: HCT-116 BRAF−/− cells, clone 34, lentiviral transduction
assayProtocol: BRAF HiBiT degradation assay, C-terminal HiBiT-tagged BRAF G469A overexpressed in HCT-116 BRAF−/− cells (clone 34), Nano-Glo HiBiT Lytic assay
Format: cell-based
conditionParameters: Class 2; BRAF G469A; DC50 at 50%: fitted conc. at Y=50
For each entry below, report its DC50 value.

Challenge: Consider the compound CCCS(=O)(=O)Nc1cccc(-c2nc(C(C)(C)C)sc2-c2ccnc(Nc3ccc(C4CCN(C(=O)C5CCN(c6cc(C7CCC(=O)NC7=O)ccn6)CC5)CC4)cc3)n2)c1F (racemic) [Compound 163] and give its measured DC50.
Response given: > 500 nM

Challenge: Consider the compound CCCS(=O)(=O)Nc1cccc(-c2nc(C(C)(C)C)sc2-c2ccnc(Nc3cnn(C4CCN(CC5CCN(c6ccc7c(=O)n(C8CCC(=O)NC8=O)ccc7c6)CC5)CC4)c3)n2)c1F (racemic) [Compound 80] and give its measured DC50.
Response given: > 500 nM

Challenge: Consider the compound CCCS(=O)(=O)Nc1cccc(-c2nc(C(C)(C)C)sc2-c2ccnc(Nc3cnn(CC4CCN(C(=O)C[C@H]5CCN(c6ccc(C7CCC(=O)NC7=O)cc6)C5)CC4)c3)n2)c1F (mixture of isomers) [Compound 111] and give its measured DC50.
Response given: 50 to 500 nM

Challenge: Consider the compound CCCS(=O)(=O)Nc1cccc(-c2cn(-c3ccc(N4CCN(CC5CCN(c6ccc([C@H]7CCC(=O)NC7=O)cc6)CC5)CC4)cc3)nc2-c2ccncc2)c1F [Compound 16] and give its measured DC50.
Response given: 50 to 500 nM

Challenge: Consider the compound CCCS(=O)(=O)Nc1cccc(-c2nc(C3CCN(C(=O)C4CCN(CC5CCN(c6cccc7c6n(C)c(=O)n7C6CCC(=O)NC6=O)CC5)CC4)CC3)sc2-c2ccnc(N)n2)c1F (racemic) [Compound 195] and give its measured DC50.
Response given: < 10 nM

The measured values listed here are drawn from patent US20260317324A1.
